- Measurement Target: RSV F on RSV subtype A virus (mKate-RSV A2) (respiratory syncytial virus A2, UniProt P03420 26-574)
- Measurement Notes: cell-based or functional assay
Endpoint Name: Neut IC50 subtype A (µg/mL)
Reply numerically in µg/mL, unit not repeated.

Recorded results for 4 binders are shown here.
- Binder: "ADI-25562 (antibody, V domains shown, full-length IgG; also called Ab 453) VH: QVQLVESGGGLVKPGGSLRLSCAASGFTFSDYYMSWIRQAPGKGLEWVSYISSSSSYTNYADSVKGRFTISRDNAKNSLYLQMNSLRAEDTAVYYCARVGYSSSWYNYFDYWGQGTLVTVSS VL: SYVLTQPPSVSGAPGQRVTISCTGSSSNIGAGYDVHWYQQLPGTAPKLLIYGNSNRPSGVPDRFSGSKSGTSASLAITGLQAEDEADYYCQSYDSSLSGPVFGGGTKLTVL"
  Neut IC50 subtype A [µg/mL]: 1.18
- Binder: "ADI-19428 (antibody, V domains shown, full-length IgG) VH: EVQLLESGGGLVKPGGSLRLSCAASGFTFSSYSMNWVRQAPGKGLEWVSSISSSSSYIYYADSVKGRFTISRDNAKNSLYLQMNSLRAEDTAVYYCARDSCSGGSCYSPRFDPWGQGTLVTVSS VL: QSVLTQPPSVSGAPGQRVTISCTGSSSNIGAGYDVHWYQQLPGTAPKLLIYGNSNRPSGVPDRFSGSKSGTSASLAITGLQAEDEADYYCQSYDSTVVFGGGTKLTVL"
  Neut IC50 subtype A [µg/mL]: 3.25
- Binder: "ADI-14344 (antibody, V domains shown, full-length IgG; also called Ab 12) VH: QVQLVQSGGGLVQPGGSLRLSCAASGFTFRTYALSWVRQAPGKGLEWVSSILGSGGSTYYADSVKGRFTISRDNSKNTLYLQLNSLRAEDTAVYFCAKLAVAGLLHHYYGLDVWGQGTTVTVSS VL: SYELTQPPSVSVSPGQTASITCSGDKLENKYACWYQQKPGQSPVLLIYQDTKRPSGIPERFSGSNSGTTATLTISGTQALDEADYYCQAWDSSTASVLFGGGTQLTVL"
  Neut IC50 subtype A [µg/mL]: 8.68
- Binder: "ADI-24859 (antibody, V domains shown, full-length IgG; also called Ab 419) VH: EVQLLESGGGLVKPGGSLRLSCAASGFTFSSYSMNWVRQAPGKGLEWVSSISSSSSYIYYADSVKGRFTISRDNAKNSLYLQMNSLRAEDTAVYYCARDGSPINWVSPFPFDYWGQGTLVTVSS VL: QPVLTQPPSVSGAPGQRVTISCTGSSSNIGAGYDVHWYQQLPGTAPKLLIYGNSNRPSGVPDRFSGSKSGTSASLAITGLQAEDEADYYCQSYDSSLSGSVFGGGTQLTVL"
  Neut IC50 subtype A [µg/mL]: 0.58

Could you now consider this next binder?
Data request: // query Neut IC50 subtype A value for entry ADI-14340 (antibody, V domains shown, full-length IgG; also called Ab 8) VH: EVQLVESGGGLVKPGGSLRLSCAASGFTLSSYTMNWVRQAPGRGLEWVSSIYSTSSYIYYADSVKGRFTISRDNAKNSLYLQMNSLRAEDTAVYYCARDSQAVTGTDLYFDSWGQGTLVTVSS VL: QPGLTQPPSVSVAPGKTARITCGGNNIGRKNVHWYQQKPGQAPILVIYYDSDRPSGIPERFSGSNSGNTATLTISRVEDGDEADYYCQVWDSSNDHVIFGGGTQLTVL
Data returned: 6.63

Source: patent US20260258115A1
